tested on: HT-29; assay: Inhibition of hTERT mRNA expression in human HT-29 cells assessed as hTERT mRNA level at 5 ug/ml incubated for 48 hrs by RT-PCR method relative to control; format: functional; design: scale not given: the % may be the effect or the level left
Binarize Activity at 70%; below is Y, at or above is N.

Compound: COc1cc2c(c(OC)c1OC)-c1ccc(OC)c(=O)cc1[C@@H](NC(=O)CCCCCCCCCCC(=O)OCCCCC[C@@H]1CC=CC(=O)O1)CC2
Measured target: HT-29
Category label: Y
--
Compound: COc1cc2c(c(OC)c1OC)-c1ccc(OC)c(=O)cc1[C@@H](NC(=O)CCCC(=O)OCCCCC[C@@H]1CC=CC(=O)O1)CC2
Measured target: HT-29
Category label: Y
--
Compound: COc1cc2c(c(OC)c1OC)-c1ccc(OC)c(=O)cc1[C@@H](NC(=O)CCCCCCCCCCC(=O)OCC[C@H](C[C@H](O)C[C@@H]1CC=CC(=O)O1)OC)CC2
Measured target: HT-29
Category label: Y
--
Compound: C/C=C/C[C@H](C)[C@@H](OC)[C@@H](C)[C@H](O)C[C@H]1OC(=O)C=C[C@H]1CC [PIRONETIN]
Measured target: HT-29
Category label: N
--
Compound: CO[C@H](CCO)C[C@H](O)C[C@@H]1CC=CC(=O)O1
Measured target: HT-29
Category label: N
--
Compound: COc1cc2c(c(OC)c1OC)-c1ccc(OC)c(=O)cc1[C@@H](NC(C)=O)CC2 [COLCHICINE]
Measured target: HT-29
Category label: Y
--
Compound: COc1cc2c(c(OC)c1OC)-c1ccc(OC)c(=O)cc1[C@@H](NC(=O)CCCC(=O)OCC[C@H](C[C@H](C)C[C@@H]1CC=CC(=O)O1)OC)CC2
Measured target: HT-29
Category label: N

* * *

system: HT-29; assay: Inhibition of Myc mRNA expression in human HT-29 cells assessed as Myc mRNA level at 5 ug/ml incubated for 48 hrs by RT-PCR method relative to control; format: functional; design: scale not given: the % may be the effect or the level left
We label by threshold. Values of Activity strictly beneath 20% are yes (1). Values of 20% and up are no (0).

Compound structure: COc1cc2c(c(OC)c1OC)-c1ccc(OC)c(=O)cc1[C@@H](NC(=O)CCCCCCCCCCC(=O)OCCCCC[C@@H]1CC=CC(=O)O1)CC2
Measured target: HT-29
Category label: yes (1)
--
Compound structure: COc1cc2c(c(OC)c1OC)-c1ccc(OC)c(=O)cc1[C@@H](NC(=O)CCCC(=O)OCC[C@H](C[C@H](C)C[C@@H]1CC=CC(=O)O1)OC)CC2
Measured target: HT-29
Category label: no (0)
--
Compound structure: COc1cc2c(c(OC)c1OC)-c1ccc(OC)c(=O)cc1[C@@H](NC(=O)CCCC(=O)OCCCCC[C@@H]1CC=CC(=O)O1)CC2
Measured target: HT-29
Category label: yes (1)
--
Compound structure: CO[C@H](CCO)C[C@H](O)C[C@@H]1CC=CC(=O)O1
Measured target: HT-29
Category label: no (0)
--
Compound structure: COc1cc2c(c(OC)c1OC)-c1ccc(OC)c(=O)cc1[C@@H](NC(=O)CCCCCCCCCCC(=O)OCC[C@H](C[C@H](O)C[C@@H]1CC=CC(=O)O1)OC)CC2
Measured target: HT-29
Category label: yes (1)
--
Compound structure: COc1cc2c(c(OC)c1OC)-c1ccc(OC)c(=O)cc1[C@@H](NC(C)=O)CC2
Measured target: HT-29
Category label: yes (1)
--
Compound structure: C/C=C/C[C@H](C)[C@@H](OC)[C@@H](C)[C@H](O)C[C@H]1OC(=O)C=C[C@H]1CC
Measured target: HT-29
Category label: no (0)
